Source of measurements: paper PMC7253382

Entries and their measured HL-60 cells MIC follow.
- System: human myeloid leukaemia HL-60 cells
- methodNotes: In vitro toxicity assay (resazurin), HL-60 cells
- Type: cell-based
- testConditions: cytotoxicity; determined microscopically; 72 h
Report the figure in µM without appending any unit label.

compound="CC1(C)C(=O)C=C[C@]2(C)C3CC[C@@]4(C)[C@H](c5ccoc5)OC(=O)[C@H]5O[C@]54[C@]3(C)[C@H](O)C[C@@H]12 (stereo partly drawn) [Compound 3, 7-deacetylgedunin]" assayedsystem="human myeloid leukaemia HL-60 cells" observationtype="HL-60 cells MIC" valuemeasured=100

[in] So what does the record say about HL-60 cells MIC for CC1(C)C(=O)C=C[C@]2(C)C3C(=O)C[C@@]4(C)[C@H](c5ccoc5)OC(=O)[C@H]5O[C@]54[C@]3(C)CC[C@@H]12 (stereo partly drawn) [Compound 1, kotschyienone A] ?
[out] 100

* * *

- methodNotes: In vitro toxicity assay (resazurin), HL-60 cells
- Format: cell-based, human
- testConditions: human, HL-60 cells (human myeloid leukaemia), cytotoxicity; 50% growth inhibition, resazurin, 72 h; read-out: HL-60 cells GI50
observationType: GI50 at 72 h

See these solved cases before continuing.
compound="CC1(C)C(=O)C=C[C@]2(C)C3C(=O)C[C@@]4(C)[C@H](c5ccoc5)OC(=O)[C@H]5O[C@]54[C@]3(C)[C@H](O)C[C@@H]12 (stereo partly drawn) [Compound 2, kotschyienone B]" valuemeasured="> 100 µM"
compound="C=C1[C@@H]([C@@]2(C)C=CC(=O)C(C)(C)[C@@H]2CC(=O)OC)CC[C@@]2(C)[C@H](c3ccoc3)OC(=O)[C@H]3O[C@]132 [Compound 5, andirobin]" valuemeasured="> 100 µM"

Now let's try a different one.
[in] So what does the record say about GI50 at 72 h for CC1(C)C(=O)C=C[C@]2(C)C3C(=O)C[C@@]4(C)[C@H](c5ccoc5)OC(=O)[C@H]5O[C@]54[C@]3(C)CC[C@@H]12 (stereo partly drawn) [Compound 1, kotschyienone A] ?
[out] 31.5 to 46.2 µM

* * *

- methodNotes: In vitro toxicity assay (resazurin), HL-60 cells
- Format: cell-based, human
- testConditions: human, cytotoxicity; 50% growth inhibition, resazurin, 72 h; read-out: HL-60 cells GI50
observationType: GI50 at 72 h

compound="CC1(C)C(=O)C=C[C@]2(C)C3CC[C@@]4(C)[C@H](c5ccoc5)OC(=O)[C@H]5O[C@]54[C@]3(C)[C@H](O)C[C@@H]12 (stereo partly drawn)" valuemeasured="31.5 to 46.2 µM"
compound="CC1(C)C(=O)C=C[C@]2(C)C3CC[C@@]4(C)[C@H](c5ccoc5)OC(=O)[C@H]5O[C@]54[C@]3(C)C(=O)C[C@@H]12 (stereo partly drawn)" valuemeasured="> 100 µM"

[in] So what does the record say about GI50 at 72 h for C=C1[C@@H]2CC[C@@]3(C)[C@H](c4ccoc4)OC(=O)C[C@]13O[C@H]1CC(=O)C(C)(C)[C@H](CC(=O)OC)[C@]12C [Compound 6, methyl angolensate] ?
[out] > 100 µM

* * *

Entries and their measured HL-60 cells MIC follow.
- System: human myeloid leukaemia HL-60 cells
- methodNotes: In vitro toxicity assay (resazurin), HL-60 cells
- Assay type: cell-based
- testConditions: cytotoxicity; determined microscopically; 72 h

See these solved cases before continuing.
compound="CC1(C)C(=O)C=C[C@]2(C)C3CC[C@@]4(C)[C@H](c5ccoc5)OC(=O)[C@H]5O[C@]54[C@]3(C)C(=O)C[C@@H]12 (stereo partly drawn)" assayedsystem="human myeloid leukaemia HL-60 cells" valuemeasured="> 100 µM"
compound="C=C1[C@@H]2CC[C@@]3(C)[C@H](c4ccoc4)OC(=O)C[C@]13O[C@H]1CC(=O)C(C)(C)[C@H](CC(=O)OC)[C@]12C [Compound 6, methyl angolensate]" assayedsystem="human myeloid leukaemia HL-60 cells" valuemeasured="> 100 µM"

Now let's try a different one.
[in] API: value(readout= HL-60 cells MIC, system= human myeloid leukaemia HL-60 cells, query= C=C1[C@@H]([C@@]2(C)C=CC(=O)C(C)(C)[C@@H]2CC(=O)OC)CC[C@@]2(C)[C@H](c3ccoc3)OC(=O)[C@H]3O[C@]132 )
[out] > 100 µM
